Cited source: patent US20240270821A1

Biological target: hGIPR (Homo sapiens)
Sequence (P48546 22-466): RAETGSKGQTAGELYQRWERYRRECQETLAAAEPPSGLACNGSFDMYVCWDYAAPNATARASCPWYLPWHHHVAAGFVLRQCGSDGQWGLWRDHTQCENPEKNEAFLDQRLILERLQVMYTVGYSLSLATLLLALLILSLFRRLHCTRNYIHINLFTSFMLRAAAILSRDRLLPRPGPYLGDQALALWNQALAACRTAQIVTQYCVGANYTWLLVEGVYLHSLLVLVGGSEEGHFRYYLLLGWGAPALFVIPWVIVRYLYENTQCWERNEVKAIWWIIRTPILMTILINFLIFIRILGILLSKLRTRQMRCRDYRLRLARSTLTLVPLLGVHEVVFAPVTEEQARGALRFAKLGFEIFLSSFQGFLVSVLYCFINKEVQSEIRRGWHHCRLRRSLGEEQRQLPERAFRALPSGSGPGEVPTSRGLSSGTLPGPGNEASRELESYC
Assay: Functional cAMP activity in the presence of 1% HSA
Assay type: cell-based
Conditions: read-out: cAMP Rel EC50, hGIPR
Starred links: 1 amine or outer side, 2 acyl side, 3 side chain; linkers in the order of their positions; H or OH if unused. Non-standard residues stand in square brackets, D forms with d. Groups on a side chain read outwards from the residue. No end group written: not given here. *: point of attachment. C18 diacid = O=C(O)CCCCCCCCCCCCCCCCC(=O)*; αMePhe(2-F) = C[C@](N)(Cc1ccccc1F)C(=O)O; γGlu = O=C(O)[C@H](CCC(=O)[*:2])N[*:1]; αMe4Pal = C[C@](N)(Cc1ccncc1)C(=O)O; αMeY = C[C@](N)(Cc1ccc(O)cc1)C(=O)O; 4Pal = N[C@@H](Cc1ccncc1)C(=O)O; αMeL = CC(C)C[C@](C)(N)C(=O)O; αMeS = C[C@](N)(CO)C(=O)O; Orn = NCCC[C@H](N)C(=O)O; AEEA = NCCOCCOCC(=O)O; Aib = CC(C)(N)C(=O)O
Values of EC50 strictly less than 1 nM map to Fulfilled, and values of at least 1 nM map to Not fulfilled.

Below, 4 substances whose answers are already recorded.
{"columns": ["substance", "label"],
 "data": [
  ["H-Y[Aib]QGTFTSD[4Pal]S[Orn][αMeL]LDKK([AEEA-γGlu-C18 diacid])AQ[Aib]AFIE[αMeY]LIEGGPSSGAPPPSGS-NH2 [Example 836]", "Not fulfilled"],
  ["H-Y[Aib]QGT[αMePhe(2-F)]TSD[4Pal]SI[αMeL]LD[Orn]K([γGlu-γGlu-C18 diacid])AQ[αMe4Pal]EFI[dE][αMeY]LIEGGPSSGAPPPSGE-NH2 [Example 616]", "Fulfilled"],
  ["H-Y[Aib]QGT[αMePhe(2-F)]TSD[4Pal][αMeS]I[αMeL]LD[Orn]K([AEEA-γGlu-C18 diacid])AQ[Aib][Orn]FI[dE][αMeY]LIEGGPSSGEPPPSEG-NH2 [Example 401]", "Not fulfilled"],
  ["H-Y[Aib]QGT[αMePhe(2-F)]TSD[4Pal]SI[αMeL]LD[Orn]K([AEEA-γGlu-C18 diacid])AQ[αMe4Pal][Orn]FI[dE][αMeY]LIEGGPSSGEPPPEAE-NH2 [Example 676]", "Not fulfilled"]
]}

Shifting focus to the substance that follows.
EC50 strictly < 1 nM for this substance? Y[Aib]QGTFTSD[4Pal]SQ[αMeL]LDKK([dE-dE-γGlu-C18 diacid])AQ[αMe4Pal]AFIEYLIE[Aib]GPSSGAPPPSGSE-NH2 [Example 925] Not fulfilled
